The values you see were collected from patent US20080269213A1.

Please go through the items and note down their inhibition at […].
- target desc: recombinant human Aggrecanase-2 Agg2-Phe628 (Homo sapiens, UniProt Q9UNA0)
- Sequence (Q9UNA0 262-628 limits assumed): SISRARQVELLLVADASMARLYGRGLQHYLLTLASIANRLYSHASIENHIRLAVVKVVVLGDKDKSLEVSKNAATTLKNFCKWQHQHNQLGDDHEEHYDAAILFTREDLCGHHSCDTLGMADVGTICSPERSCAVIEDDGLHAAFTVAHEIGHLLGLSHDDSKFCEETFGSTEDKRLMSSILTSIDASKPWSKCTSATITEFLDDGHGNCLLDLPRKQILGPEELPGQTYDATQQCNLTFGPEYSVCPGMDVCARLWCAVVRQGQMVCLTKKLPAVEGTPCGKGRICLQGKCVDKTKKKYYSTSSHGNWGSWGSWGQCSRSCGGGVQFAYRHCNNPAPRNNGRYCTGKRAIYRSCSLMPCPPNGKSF
- protocol notes: Aggrecanase 2 in vitro enzyme assay (Agg-2 FRET, quenched fluorescent peptide substrate)
- Assay type: biochemical
- Parameters: purified recombinant human Aggrecanase-2 Agg2-Phe628 (MW=41,737); This is a truncated form of full-length human aggrecanase-2; made in house; host or cells: CHO cells
- assay context: @ 2500 nM

Recorded inhibition at […], per entry:
# compound, inhibition at […]
records = [
    ("CO/C(=C\\c1ccccc1)C(NC(=O)COc1ccccc1)c1cc(Cl)c2cccnc2c1O (stereo not drawn)", "50%"),
    ("Cn1cc(C(NC(=O)COc2ccccc2)c2cc(Cl)c3cccnc3c2O)c2ccccc21 (stereo not drawn)", "53%"),
    ("Cn1c(C(NC(=O)COc2ccccc2)c2cc(Cl)c3cccnc3c2O)cc2ccccc21 (stereo not drawn)", "57%"),
]

Parameter requested: inhibition at […]. Apply to each item below.
1. CCCc1ccc(OCC(=O)NC(c2ccccc2Cl)c2cc(Cl)c3cccnc3c2O)cc1 (stereo not drawn)
2. CCC/C=C/C(NC(=O)COc1ccccc1)c1cc(Cl)c2cccnc2c1O (stereo not drawn)

Result:
1. 47%
2. 47%

Consider the following items and state reported inhibition at […] for each.
1. O=C(COc1ccccc1)NC(c1cc(Cl)c2cccnc2c1O)c1coc2ccccc2c1=O (stereo not drawn)
2. O=C(COc1ccccc1)NC(c1ccccc1O)c1cc(Cl)c2cccnc2c1O (stereo not drawn)
3. CC(C)c1ccc(C(NC(=O)COc2ccccc2)c2cc(Cl)c3cccnc3c2O)cc1 (stereo not drawn)
4. CCCCOc1ccc(C(NC(=O)COc2ccccc2)c2cc(Cl)c3cccnc3c2O)cc1 (stereo not drawn)

Result:
1: 72%; 2: 62%; 3: 45%; 4: 55%

---

- target desc: recombinant human Aggrecanase-2 Agg2-Phe628 (Homo sapiens)
- Sequence (Q9UNA0 262-628 limits assumed): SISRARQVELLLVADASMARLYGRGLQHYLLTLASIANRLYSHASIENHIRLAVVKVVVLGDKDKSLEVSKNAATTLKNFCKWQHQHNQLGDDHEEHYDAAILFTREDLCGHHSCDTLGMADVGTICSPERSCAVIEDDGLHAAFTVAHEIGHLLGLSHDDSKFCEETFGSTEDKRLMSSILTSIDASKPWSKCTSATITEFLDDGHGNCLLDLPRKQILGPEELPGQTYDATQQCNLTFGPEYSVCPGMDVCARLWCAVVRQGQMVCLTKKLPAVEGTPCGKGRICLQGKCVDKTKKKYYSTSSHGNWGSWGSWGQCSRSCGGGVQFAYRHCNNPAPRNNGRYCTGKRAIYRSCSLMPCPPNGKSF
- protocol notes: Aggrecanase 2 in vitro enzyme assay (Agg-2 FRET, quenched fluorescent peptide substrate)
- Assay type: biochemical
- Design: purified recombinant human Aggrecanase-2 Agg2-Phe628 (MW=41,737); This is a truncated form of full-length human aggrecanase-2; made in house; host or cells: CHO cells
- assay context: concentration not given
experimental endpoint: Agg-2 FRET Median PCT INHIB (%)
Numbers only, in %.

# compound, result units, result
rows = [
    ("Cc1ccc(C(NC(=O)CNc2ccc(C(C)(C)C)cc2)c2cc(Cl)c3cccnc3c2O)cc1 (stereo not shown)", "%", 57),
    ("Cc1ccc(C(NC(=O)CCCc2ccccc2)c2cc(Cl)c3cccnc3c2O)cc1 (stereo not shown)", "%", 41),
    ("O=C(NC(c1ccccc1)c1cc(Cl)c2cccnc2c1O)OCc1ccccc1 (stereo not shown)", "%", 46),
    ("COc1c(C(NC(=O)COc2ccccc2)c2ccccc2Cl)cc(Cl)c2cccnc12 (stereo not shown)", "%", 32),
    ("O=C(CCCc1ccccc1)NC(c1ccccc1Cl)c1cc(Cl)c2cccnc2c1O (stereo not shown)", "%", 48),
    ("CC(C)(C)c1ccc(NCC(=O)NC(c2ccccc2Cl)c2cc(Cl)c3cccnc3c2O)cc1 (stereo not shown)", "%", 54),
]

For every record below, what is its Agg-2 FRET Median PCT INHIB?
1. O=C(COc1ccc(Oc2ccccc2)cc1)NC(c1ccccc1)c1cc(Cl)c2cccnc2c1O (stereo not shown)
2. COc1ccc(C(NC(=O)COc2ccc(Cl)c(C)c2)c2cc(Cl)c3cccnc3c2O)cc1 (stereo not shown)
3. CN(C)c1cc(C(NC(=O)COc2ccccc2)c2ccccc2)c(O)c2ncccc12 (stereo not shown)
4. CS(=O)(=O)Nc1cccc(C(NC(=O)COc2ccccc2)c2cc(Cl)c3cccnc3c2OS(C)(=O)=O)c1 (stereo not shown)

Result:
1: 50; 2: 57; 3: 58; 4: 20

Please supply Agg-2 FRET Median PCT INHIB for each of the following items, keeping them in order.
1. CC(=O)NC(c1ccccc1)c1ccc2cccnc2c1O (stereo not shown)
2. O=C(NC(c1ccccc1Cl)c1cc(Cl)c2cccnc2c1O)OCc1ccccc1 (stereo not shown)
3. O=C(CNCc1cccnc1)NC(c1ccccc1)c1cc(Cl)c2cccnc2c1O (stereo not shown)

Result:
1: 50; 2: 56; 3: 32
